Record form. Attribute: TGI. Fill in for each entry.
System: 786-0 renal
ASSAY_NAME: NCI tumour cell line growth inhibition, 48 h
The reply should be a number in µM, with the unit left off.

Kindly note the recorded TGI for `COc1cc(Nc2nc3ccc(C(F)(F)F)cc3nc2C(=O)O)cc(OC)c1OC` , which is 74.6

What the record says about Cc1ccc2[nH]c3c(c2c1)C1CCC(C(C)(C)C)CC1C1C(=O)N(c2ccc4c(c2)OCO4)C(=O)C31 (centres undefined) : TGI is 3

compound `c1ccc(C(=NNc2cnc3ccccc3n2)c2ccccn2)cc1` , TGI observed: 15.4

The compound `CC(C)(C)c1ccc(/C=N/NC(=O)CSCC(=O)N/N=C/c2ccc(C(C)(C)C)cc2)cc1` showed TGI equal to 4.4

`CN1CC[C@]2(c3cccc(O)c3)CC(=O)/C(=C/c3ccc(Cl)c(Cl)c3)[C@@H]1C2` yielded TGI of 2.23

Noted for `Nc1nc(Nc2ccccc2)sc1C(=O)c1cccs1` : its TGI reads 28.6

###

System: HS 578T breast
ASSAY_NAME: NCI tumour cell line growth inhibition, 48 h
For each of the molecules below, state its TGI.

CC(C)SC(NC(=O)C1C(C)(C)CCC1(C)C)C(=O)O (stereo not drawn) yielded TGI of > 100 µM

The recorded TGI for entry `CNC(=O)Oc1cc(C)c(/C=C/c2cncc(C(=O)NC)c2)c(C)c1` equals > 25 µM

In plain terms, `COc1ccc(-c2nc(N3CCN(C(=O)C4CCCCC4)CC3)c3c4c(sc3n2)CCCC4)cc1` has a documented TGI of > 100 µM

###

What TGI was measured for each of the following?
Test system: UACC-257 melanoma
ASSAY_NAME: NCI tumour cell line growth inhibition, 48 h

Briefly, TGI measured for CC(=O)NNC(=O)C1CCCCN1 (stereo not given) : > 100 µM

Reported TGI ( N#CCC(=O)N/N=C(\C(=O)Nc1ccc(Cl)c(Cl)c1)C1CN(c2ccccc2)N=C1N (stereo not given) ) = > 100 µM

So for `O=c1c2ccccc2c2ccccc2c(=O)n1Cc1ccc2c(c1)OCO2` , the logged TGI turned out to be > 100 µM

The recorded TGI for entry CCOC(=O)C(C)(C)C(O)C(C)C (stereo not given) equals > 100 µM

Reported TGI of `Clc1cc(Br)c2c3c(c(Br)cc(Cl)c13)C(Br)=C2Br` : > 100 µM

###

System: MALME-3M melanoma
ASSAY_NAME: NCI tumour cell line growth inhibition, 48 h
QUANTITY_MEASURED: TGI

Form field TGI, entry `CC(=O)O[C@H]1C(=O)[C@@]2(C)[C@H]([C@H](OC(=O)c3ccccc3)[C@]3(O)C[C@H](OC(=O)[C@H](O)[C@@H](NC(=O)C(C)(C)C)c4ccccc4)C(C)=C1C3(C)C)[C@]1(OC(C)=O)CO[C@@H]1C[C@@H]2O` : > 10 µM

Record `O=c1oc(=O)c2oc3ccccc3oc1=2` , field TGI: > 100 µM

Entry `NC(N)=NS(=O)(=O)c1ccc(Nc2c3ccccc3nc3c(C(=O)Nc4ccc(S(N)(=O)=O)cc4)ccc(Cl)c23)cc1` , TGI reported as > 100 µM

For reference, reported TGI for O=c1[nH]c(=O)n(C2CC(O)C(CO)O2)cc1OCC1CCCCC1 (stereo not given) stands at > 100 µM

Notebook: `C[n+]1ccc(-c2c3nc(c(-c4cc[n+](C)cc4)c4ccc([n-]4)c(-c4cc[n+](C)cc4)c4nc(c(-c5cc[n+](C)cc5)c5ccc2[n-]5)C=C4)C=C3)cc1.[I-].[Zn+2]` , TGI read as 39.8 µM

For CC(=O)NNC(=O)C1CCCCN1 (stereo not given) the molecule record lists TGI as > 100 µM

The molecule listed as COc1ccc(OC(C(=O)O)c2ccccc2)c2c1CCCC2=O (stereo not given) shows TGI equal to > 100 µM

Recorded result, COC1CC(NC(=O)C(F)(F)F)C(OC(C)=O)C(C)O1 (stereo not given) , TGI: > 100 µM

`Cc1cc(O)cc(C)c1/C=C/c1cncc(-c2nn[nH]n2)c1` yielded TGI of > 25 µM

// `CN(CC(=O)O)c1ncc2c(n1)-c1ccccc1OC2` : TGI value = > 100 µM

Entry `O=C1C2CN(Cc3ccccc3)CC1CN(CC1CC1)C2` — recorded TGI = > 100 µM

The reported value for NCCC(=O)N[C@@H](Cc1cc(O)c(O)c(SCC(NC(=O)CC[C@H](N)C(=O)O)C(=O)NCC(=O)O)c1)C(=O)O (stereo not given in full) in terms of TGI is > 50 µM

Recorded TGI (molecule `Clc1cc(Br)c2c3c(c(Br)cc(Cl)c13)C(Br)=C2Br` ): > 100 µM

Given item `CSCCOC(=O)C(=[N+]=[N-])c1ccc([N+](=O)[O-])cc1` , the value recorded as its TGI is > 100 µM

Memo: `O=C1C(=Cc2cccc(O)c2)N=C(c2ccccc2)N1n1c(-c2ccccc2)nc2ccccc2c1=O` , reported TGI: 92.3 µM
